B1: Tyrosine-protein kinase Lck, residues 63 to 120; numbered along this chain, P06239 (parent)
chain: DNLVIALHSYEPSHDGDLGFEKGEQLRILEQSGEWWKAQSLTTGQEGFIPFNFVAKAN

Variants of: B1
Assay: abundance fitness (aPCA) (normalised: wild type 0, dead -1); higher = more abundant; growth selection in yeast, the domain comes from the species named
Details: Homo sapiens
# abundance fitness per record follows
// no unit, no text: just the number

Check out these entries, answers already filled in.
I49D; -0.801
D1V; -0.519

q: Give abundance fitness for E34Q
a: -0.149

q: Quickly give me recorded abundance fitness for F48E
a: -0.286

q: Give me measured abundance fitness, please, for this variant: N2S
a: -0.128

q: Give the reported value of abundance fitness for this record: L29A
a: -0.645

q: Dear colleague, please send me the reported abundance fitness for R27F when you can.
a: -0.448
